REPORTED METRIC: melting point (°C)

MOLECULE	RECORDED RESULT
O=C(Nc1ncnc2c1c(Br)cn2[C@H]1C[C@H](O)[C@@H](CO)O1)c1ccccc1 [Compound 5]	198
Nc1ncnc2c1c(I)cn2[C@H]1C[C@H](O)[C@@H](CO)O1 [Compound 14]	194
O=C(Nc1ncnc2c1c(Cl)cn2[C@H]1C[C@H](O)[C@@H](CO)O1)c1ccccc1 [Compound 4]	190
Cc1cn([C@H]2C[C@H](O)[C@@H](CO)O2)c2ncnc(NC(=O)c3ccccc3)c12 [Compound 6]	196

Taken from patent US6479651B1.
